Where do the numbers come from? From patent US12139475B2.

# Subject of test: CCR(9) (Homo sapiens)
# Construct: MOLT-4 cells were collected by centrifugation at 400×g at room temperature, then suspended at 50 million/ml in human serum; host or cells: MOLT-4
# Sequence (P51686 whole entry): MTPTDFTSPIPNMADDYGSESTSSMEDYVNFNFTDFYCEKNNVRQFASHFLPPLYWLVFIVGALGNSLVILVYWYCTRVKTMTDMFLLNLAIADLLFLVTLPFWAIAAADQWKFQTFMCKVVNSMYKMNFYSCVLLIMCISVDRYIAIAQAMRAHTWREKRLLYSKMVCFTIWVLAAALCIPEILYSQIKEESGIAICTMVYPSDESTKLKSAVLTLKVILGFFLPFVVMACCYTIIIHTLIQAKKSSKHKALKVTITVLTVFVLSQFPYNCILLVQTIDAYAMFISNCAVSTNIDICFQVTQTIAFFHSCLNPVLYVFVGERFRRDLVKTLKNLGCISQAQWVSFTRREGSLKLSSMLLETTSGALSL
# Method summary: Serum chemotaxis assay (MOLT-4 cells, TECK-induced migration, ChemoTX)
# Format: cell-based
# Experimental conditions: MOLT-4 cells in human serum, migration to recombinant human TECK, 90 minutes at 37° C.
Measurement name: Chemotaxis A2

Study these solved cases before continuing.
1) Cc1cc(CN2C(=O)[C@@](C)(c3ccc4c(c3)CCC(C)(C)O4)c3cc(Cl)ccc32)ccc1C(=O)O :: +++ (100 nM > A2)
2) CC1(c2ccc(C3(C(F)(F)F)CC3)cc2)C(=O)N(c2cccc(C(=O)O)c2)c2ccc(Cl)cc21 (stereo not shown) :: +++ (100 nM > A2)
3) CC(C)(C)c1ccc(C2(C)C(=O)N(c3cccc(C(=O)O)c3F)c3ccc(Cl)cc32)cc1 (stereo not shown) :: +++ (100 nM > A2)
4) Cc1cc(C(=O)O)cc(N2C(=O)[C@@](C)(c3ccc4c(c3)CCC(C)(C)O4)c3cc(Cl)ccc32)c1 :: +++ (100 nM > A2)

(Q) Please report the recorded Chemotaxis A2 for Cc1cc(C(C)(C)C)ccc1C1(C)C(=O)N(c2cccc(C(=O)O)c2)c2ccc(Cl)cc21 (stereo not shown) .
(A) +++ (100 nM > A2)

(Q) Please report the recorded Chemotaxis A2 for `CC1(C)CCc2cc([C@]3(C)C(=O)N(c4cc(F)cc(C(=O)O)c4)c4ccc(Cl)cc43)ccc2O1` .
(A) +++ (100 nM > A2)

(Q) Please report the recorded Chemotaxis A2 for `CC1(C)CCc2cc([C@]3(C)C(=O)N(c4ccc(C(=O)O)cc4)c4ccc(Cl)cc43)ccc2O1` .
(A) +++ (100 nM > A2)

(Q) Please report the recorded Chemotaxis A2 for `Cn1nnn(Cc2ccc(N3C(=O)[C@@](C)(c4ccc5c(c4)CCC(C)(C)O5)c4cc(Cl)ccc43)cc2)c1=O` .
(A) +++ (100 nM > A2)
